Target: full-length human PIKFYVE (N-terminal GST-fusion) (Homo sapiens (Human), UniProt Q9Y2I7, L932S/Q1183K/Q995L/S1033A/S696N/T998S)
Sequence (Q9Y2I7 whole entry S696N/L932S/Q995L/T998S/S1033A/Q1183K, the tested form may be a part): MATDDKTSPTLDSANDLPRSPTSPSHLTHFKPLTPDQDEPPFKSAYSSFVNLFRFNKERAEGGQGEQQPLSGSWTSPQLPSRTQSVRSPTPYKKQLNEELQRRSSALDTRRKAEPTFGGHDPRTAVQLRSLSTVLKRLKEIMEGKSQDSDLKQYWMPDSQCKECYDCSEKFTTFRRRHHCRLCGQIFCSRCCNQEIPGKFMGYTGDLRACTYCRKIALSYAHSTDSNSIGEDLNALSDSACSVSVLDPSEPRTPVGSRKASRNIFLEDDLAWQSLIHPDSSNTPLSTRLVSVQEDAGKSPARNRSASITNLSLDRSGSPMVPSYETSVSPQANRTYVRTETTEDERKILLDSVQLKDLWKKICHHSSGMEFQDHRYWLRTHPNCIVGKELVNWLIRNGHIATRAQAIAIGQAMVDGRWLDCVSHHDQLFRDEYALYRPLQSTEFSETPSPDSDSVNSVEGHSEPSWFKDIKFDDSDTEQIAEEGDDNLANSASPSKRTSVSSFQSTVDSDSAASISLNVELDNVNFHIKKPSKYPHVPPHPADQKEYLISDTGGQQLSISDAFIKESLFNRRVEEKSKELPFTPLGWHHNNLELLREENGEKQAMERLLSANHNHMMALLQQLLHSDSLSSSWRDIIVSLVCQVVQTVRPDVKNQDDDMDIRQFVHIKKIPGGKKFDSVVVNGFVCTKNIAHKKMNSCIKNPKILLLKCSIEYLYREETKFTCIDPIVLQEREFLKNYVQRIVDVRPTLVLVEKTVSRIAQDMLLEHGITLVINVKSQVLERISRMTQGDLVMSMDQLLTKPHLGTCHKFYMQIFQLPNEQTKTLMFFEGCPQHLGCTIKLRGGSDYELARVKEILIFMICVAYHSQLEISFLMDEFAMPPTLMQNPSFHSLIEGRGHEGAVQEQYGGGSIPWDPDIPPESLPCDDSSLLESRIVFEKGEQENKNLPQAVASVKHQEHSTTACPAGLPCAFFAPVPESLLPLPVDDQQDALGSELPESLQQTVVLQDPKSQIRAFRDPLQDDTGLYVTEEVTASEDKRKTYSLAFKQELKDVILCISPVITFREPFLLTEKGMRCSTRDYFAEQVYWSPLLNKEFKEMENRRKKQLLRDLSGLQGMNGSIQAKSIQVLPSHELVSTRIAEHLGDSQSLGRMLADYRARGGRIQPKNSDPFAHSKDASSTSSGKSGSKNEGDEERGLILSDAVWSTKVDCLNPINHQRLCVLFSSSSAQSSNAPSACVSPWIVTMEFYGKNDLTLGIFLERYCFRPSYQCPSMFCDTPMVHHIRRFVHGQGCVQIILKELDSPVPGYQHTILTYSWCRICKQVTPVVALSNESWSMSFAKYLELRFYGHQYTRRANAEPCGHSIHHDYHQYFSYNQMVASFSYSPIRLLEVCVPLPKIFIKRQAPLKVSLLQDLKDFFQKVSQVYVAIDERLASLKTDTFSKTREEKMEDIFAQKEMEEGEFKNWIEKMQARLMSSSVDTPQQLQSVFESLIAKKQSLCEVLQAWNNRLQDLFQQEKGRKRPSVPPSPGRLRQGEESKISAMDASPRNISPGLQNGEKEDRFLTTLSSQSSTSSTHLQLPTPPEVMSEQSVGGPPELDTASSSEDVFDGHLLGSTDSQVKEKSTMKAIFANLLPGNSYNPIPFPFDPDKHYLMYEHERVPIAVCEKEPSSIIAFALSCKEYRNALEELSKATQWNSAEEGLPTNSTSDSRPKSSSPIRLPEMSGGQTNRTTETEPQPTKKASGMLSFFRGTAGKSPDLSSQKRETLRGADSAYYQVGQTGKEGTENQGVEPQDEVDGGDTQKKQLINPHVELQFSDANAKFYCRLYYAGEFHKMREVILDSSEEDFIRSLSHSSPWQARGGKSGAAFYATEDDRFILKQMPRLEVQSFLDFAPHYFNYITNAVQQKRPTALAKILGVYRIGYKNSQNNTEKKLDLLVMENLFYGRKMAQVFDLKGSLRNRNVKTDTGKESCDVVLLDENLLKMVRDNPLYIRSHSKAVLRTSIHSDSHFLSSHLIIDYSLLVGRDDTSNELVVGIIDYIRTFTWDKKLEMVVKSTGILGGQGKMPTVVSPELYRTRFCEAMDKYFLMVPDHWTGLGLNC
Assay: PIKfyve biochemical assay (ADP-Glo Kinase assay, Carna Biosciences)
Conditions: ADP-Glo, full-length human GST-PIKFYVE, 10 μM to 3 nM; read-out: hPIKfyve IC50

| molecule | IC50 |
| --- | --- |
| Clc1nc(N2CCOCC2)nc2c1CCN2c1ccccc1 | 100 to 1000 nM |
| CC(=O)N1CCC(COc2nc(N3CCOCC3)nc3c2CCN3c2cccnc2)C1 (centres unmarked) | 100 to 1000 nM |
| c1ccc(N2CCc3c(OCc4cccnc4)nc(N4CCOCC4)nc32)cc1 | 10 to 100 nM |
| c1cc(-c2nc(N3CCOCC3)nc3c(-c4nccc(C5CC5)n4)c[nH]c23)ccn1 | 100 to 1000 nM |
| CN1CCC(c2nc(N3CCOCC3)nc3c2CCN3c2ccccc2)CC1 | 10 to 100 nM |
